# subject_of_test: A1PI (Homo sapiens, UniProt P01009)
# Construct: Human plasma is currently the only approved source of therapeutic AlPI
# Sequence (P01009 25-418): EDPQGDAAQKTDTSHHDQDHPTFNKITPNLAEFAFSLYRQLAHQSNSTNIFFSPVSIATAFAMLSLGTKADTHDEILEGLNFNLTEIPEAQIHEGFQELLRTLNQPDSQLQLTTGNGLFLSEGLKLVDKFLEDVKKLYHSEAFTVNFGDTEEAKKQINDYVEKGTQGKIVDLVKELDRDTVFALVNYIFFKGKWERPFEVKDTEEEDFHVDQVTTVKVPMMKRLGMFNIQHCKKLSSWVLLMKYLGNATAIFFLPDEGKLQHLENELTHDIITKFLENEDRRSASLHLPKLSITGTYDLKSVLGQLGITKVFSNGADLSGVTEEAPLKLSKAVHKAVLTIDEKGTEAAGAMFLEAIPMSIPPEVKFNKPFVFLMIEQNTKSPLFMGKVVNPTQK
# assay_overview: A1PI purification from 5 mg hSA + 1 mg A1PI on peptide column, A1PI mass balance
# Format: binding
# experimental_context: A1PI; 5 mg hSA + 1 mg A1PI, 20° C.; * Below detection limit
Ends that are not written are not given here.
observable: Mass Protein per Eluate Fraction, 2% Ac. Acid (mg)

Consider the following illustrative entries.
[
  {
    "substance": "IWRKYS",
    "experimental_value": 0.11
  },
  {
    "substance": "RFIYYT",
    "experimental_value": 0.44
  },
  {
    "substance": "IIWLYK",
    "experimental_value": 0.47
  },
  {
    "substance": "LIVHRW",
    "experimental_value": 0.37
  },
  {
    "substance": "RYRIFI",
    "experimental_value": 0.50
  }
]

A. RAFWYI
B. YKFRFW
C. ARWYIH
rank_up(items): orders items by reported Mass Protein per Eluate Fraction, 2% Ac. Acid in ascending numerical order. In plain terms: list the labels in the order you were asked to.
C, B, A
(C: 0.15 mg, B: 0.30 mg, A: 0.54 mg)

I. VIWLVR
II. WKLWRW
Out of I and II , name the one with the higher Mass Protein per Eluate Fraction, 2% Ac. Acid. State the label of the item chosen.
I
